# credit: patent US8883745B2

System: IFN-γ
Experiment: IFN-γ levels in sera upon i.v. glycolipid administration to BALB/c mice (ELISA)
Type: in vivo
Parameters: unit not given here
Details: BALB/c, serum, hour 6
PARAMETER MEASURED: IFN-γ levels, test 2

{"columns": ["COMPOUND", "PARAMETER MEASURED", "DATA VALUE"],
 "data": [
  ["CCCCCCCCCCCCCCCCCCCCCCCCCC(=O)N[C@@H](CO[C@H]1O[C@H](CO)[C@H](O)[C@H](O)[C@H]1O)[C@H](O)[C@H](O)CCCCCCCCCCCCCC [KRN, reference compound]", "IFN-γ levels, test 2", 5335],
  ["CCCCCCCCCCCCCCCCCCCCCCCCCCCCC(=O)N[C@@H](/C=C/[C@H]1O[C@H](CO)[C@H](O)[C@H](O)[C@H]1O)[C@H](O)[C@H](O)CCCCCCCCCCCCCC", "IFN-γ levels, test 2", 4648],
  ["CCCCCCCCCCCCCCCCCC/C=C/CCCCCCCCC(=O)N[C@@H](/C=C/[C@H]1O[C@H](CO)[C@H](O)[C@H](O)[C@H]1O)[C@H](O)[C@H](O)CCCCCCCCCCCCCC", "IFN-γ levels, test 2", 5167],
  ["CCCCCCCCCCCCCCCCCCCCCCCCCC(=O)N[C@@H](CC[C@H]1O[C@H](CO)[C@H](O)[C@H](O)[C@H]1O)[C@H](O)[C@H](O)CCCCCCCCCCCCCC [CRONY, reference compound]", "IFN-γ levels, test 2", 3037],
  ["CCCCCCCCCCCCCC[C@@H](O)[C@@H](O)[C@H](CC[C@H]1O[C@H](CO)[C@H](O)[C@H](O)[C@H]1O)NC(=O)CCCCCCCCCCCCCCCCCCCOCCCCC", "IFN-γ levels, test 2", 1680],
  ["CCCCCCCCCCCCCCCCC/C=C/CCCCCCCCC(=O)N[C@@H](CC[C@H]1O[C@H](CO)[C@H](O)[C@H](O)[C@H]1O)[C@H](O)[C@H](O)CCCCCCCCCCCCCC", "IFN-γ levels, test 2", 1272],
  ["CCCCCCCCCCCCCC[C@@H](O)[C@@H](O)[C@H](CC[C@H]1O[C@H](CO)[C@H](O)[C@H](O)[C@H]1O)NC(=O)CCCCCCCCCCCCCCCCCCCOCCCCCC", "IFN-γ levels, test 2", 1706]
]}

* * *

Listing of entries alongside the reported IFN-γ levels, average.
System: IFN-γ
Assay: IFN-γ levels in sera upon i.v. glycolipid administration to BALB/c mice (ELISA)
Assay type: in vivo
Set-up: unit not given here
Settings: BALB/c, serum, hour 12
Procedure: Five- to six-week-old female C57BL/6 mice and BALB/c mice were purchased from Taconic. Each glycolipid was stored at 1 mg/ml in 100% DMSO. […] At indicated time points, sera were collected from each animal, and concentrations of IFN-γ, IL-4, and IL-12 in the sera were evaluated by enzyme-linked immunosorbent assay (ELISA). Serum concentrations of IFN-γ, IL-4, and IL-12 were evaluated using an ELISA kit (eBioscience, San Diego, Calif.). […]

{"columns": ["COMPOUND", "IFN-γ levels, average"],
 "data": [
  ["CCCCCCCCCCCCCCCCC/C=C/CCCCCCCCC(=O)N[C@@H](CC[C@H]1O[C@H](CO)[C@H](O)[C@H](O)[C@H]1O)[C@H](O)[C@H](O)CCCCCCCCCCCCCC [A-3]", 3938.5],
  ["CCCCCCCCCCCCCCCCCC/C=C/CCCCCCCCC(=O)N[C@@H](/C=C/[C@H]1O[C@H](CO)[C@H](O)[C@H](O)[C@H]1O)[C@H](O)[C@H](O)CCCCCCCCCCCCCC [A-1]", 5514],
  ["CCCCCCCCCCCCCCCCCCCCCCCCCC(=O)N[C@@H](CO[C@H]1O[C@H](CO)[C@H](O)[C@H](O)[C@H]1O)[C@H](O)[C@H](O)CCCCCCCCCCCCCC [KRN, reference compound]", 8393.5],
  ["CCCCCCCCCCCCCCCCCCCCCCCCCCCCC(=O)N[C@@H](/C=C/[C@H]1O[C@H](CO)[C@H](O)[C@H](O)[C@H]1O)[C@H](O)[C@H](O)CCCCCCCCCCCCCC [A-2]", 6418.5]
]}
